# systemUnderTest: BRAF (G469A) (Homo sapiens, UniProt P15056, G469A)
# Sequence (P15056 whole entry G469A): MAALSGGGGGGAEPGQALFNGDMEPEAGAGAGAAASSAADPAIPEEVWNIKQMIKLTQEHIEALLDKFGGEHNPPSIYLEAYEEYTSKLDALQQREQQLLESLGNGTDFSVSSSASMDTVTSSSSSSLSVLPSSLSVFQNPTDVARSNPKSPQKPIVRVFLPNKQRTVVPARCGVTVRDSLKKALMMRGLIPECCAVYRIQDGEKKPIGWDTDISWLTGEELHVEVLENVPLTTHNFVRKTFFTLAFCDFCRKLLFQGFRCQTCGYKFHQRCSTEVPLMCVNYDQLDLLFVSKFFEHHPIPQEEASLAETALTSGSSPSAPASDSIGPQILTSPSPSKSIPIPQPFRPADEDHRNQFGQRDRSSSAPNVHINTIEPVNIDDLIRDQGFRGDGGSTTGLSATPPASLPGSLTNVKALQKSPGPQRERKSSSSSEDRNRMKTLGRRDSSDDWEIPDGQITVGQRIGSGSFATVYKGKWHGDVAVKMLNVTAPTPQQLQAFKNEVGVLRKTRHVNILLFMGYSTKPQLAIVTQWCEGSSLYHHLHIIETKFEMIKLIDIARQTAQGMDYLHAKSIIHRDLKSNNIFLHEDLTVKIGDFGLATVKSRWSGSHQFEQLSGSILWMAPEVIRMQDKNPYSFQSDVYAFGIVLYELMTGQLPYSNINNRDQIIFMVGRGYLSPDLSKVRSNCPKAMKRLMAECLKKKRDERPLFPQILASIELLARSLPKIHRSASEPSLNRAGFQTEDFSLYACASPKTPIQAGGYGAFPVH
# measurementNotes: Radiolabeled kinase assay (Reaction Biology)
measurementLabel: pIC50
A value of pIC50 is the negative decimal logarithm of a concentration given in moles per litre.

Q. Hi! What's the reported pIC50 for CCCS(=O)(=O)Nc1ccc(F)c(C(=O)c2c[nH]c3ncc(-c4ccc(N5CCN(CC(=O)NC(C(=O)N6CC(O)CC6C(=O)NCc6ccc(-c7scnc7C)cc6)C(C)(C)C)CC5)cc4)cc23)c1F (stereo not shown) [SJF-0628] on BRAF (G469A) (Homo sapiens, UniProt P15056, G469A)?
A. 9.01
